System: UACC-62
Assay name: NCI tumour cell line growth inhibition, 48 h
Calls of active or inactive are those of the source. Rule as the data show it: active = GI50 up to about 1.1 µM and inactive = higher.
Choose one outcome from this list and give only that: active, inactive

Some solved cases for reference:
INSERT INTO results (compound, target_of_assay, class_name) VALUES
  ('O=C1CCCC/C(=C/c2ccccc2)N1', 'UACC-62', 'inactive'),
  ('CCCCCCc1cc(C=O)sc1-c1ccc(-c2sc(-c3ccc(-c4ccc(-c5cc(CCCCCC)c(-c6ccc(-c7sc(C=O)cc7CCCCCC)s6)s5)s4)s3)cc2CCCCCC)s1', 'UACC-62', 'inactive');

Turning to the following compound.
Query: What outcome does the record of this test show for C[C@H]1CN[C@@H]2[C@@H](C)[C@H]3[C@@H](C[C@H]4[C@@H]5CC[C@H]6C[C@@H](N)CC[C@]6(C)[C@H]5CC[C@]34C)O[C@@]2(O)C1 ?
Response: inactive

Where do the numbers come from? From ChEMBL document CHEMBL1201862.
